pKi: −log10 of the molar value.
Let's look at some pKi data for UniProt P00742 that I collected from the literature.
measured quantity: pKi

INSERT INTO measurements (compound, inequality_sign, quantitative_result) VALUES
  ('O=C(Cn1ccnc(NCC(F)(F)c2cccc[n+]2[O-])c1=O)NCc1ccccc1-n1cnnn1', '=', 6.43),
  ('N=C(N)c1ccc(CC(=O)C(=O)O)c(OCCNC(=O)c2ccc(C(=O)N3CCCC3)cc2)c1', '=', 8.52),
  ('CCOC(=O)Cc1cccc(Oc2nc(Oc3cccc(C(=N)N)c3)c(F)c(C)c2F)c1', '=', 6.09),
  ('COC(=O)CNC(=O)CC(CCc1ccc(C(=N)N)cc1)c1cccc(C(=N)N)c1 (stereo not drawn)', '=', 5.62),
  ('N=C(N)c1cccc(C[C@H](NS(=O)(=O)c2ccc3ccccc3c2)C(=O)N2CCC(C(=O)NCc3ccccc3)CC2)c1', '=', 4.46),
  ('CCOC(=O)c1ccc(N(C)C)cc1Oc1nc(Oc2cccc(C(=N)N)c2)c(F)c(C)c1F', '<', 5.30),
  ('N=C(N)NCCC1CCN(C(=O)[C@H](Cc2cccc(C(=N)N)c2)NS(=O)(=O)c2ccc3ccccc3c2)CC1', '=', 4.57),
  ('CCNC(=O)N(C)CC1(c2ccc(N3CCc4c(C(F)(F)F)nn(-c5ccc(OC)cc5)c4C3=O)cc2)CC1', '=', 9.85),
  ('COc1ccc2ccc(S(=O)(=O)NC3CCN(Cc4cc(C(=N)N)ccc4N)C3=O)cc2c1 (stereo not drawn)', '=', 8.20),
  ('CC(C)N1CCC(NC(=O)c2cc3cccnc3n2CC(=O)Nc2ccc(Cl)cc2)CC1', '=', 7.96),
  ('COc1ccc(COc2ccc(NC(=O)c3sc4ccccc4c3Cl)c(C(=O)Nc3ccc(Cl)cc3)c2)cc1', '<', 5.30),
  ('CN(CCOCCO)Cc1csc(C(=O)Nc2ccc(Cl)cc2C(=O)Nc2ccc(Cl)cc2)c1Cl', '=', 8.82),
  ('N=C(N)c1ccc(C(=O)NCCOc2cc(C(=N)N)ccc2CC(=O)C(=O)O)cc1', '=', 7.59),
  ('Cc1c(F)c(Oc2cccc(CCC(=O)N(C)C)c2)nc(Oc2cccc(C(=N)N)c2)c1F', '=', 5.89),
  ('CNC(=O)OCC(Oc1cccc2sc(C(=N)N)cc12)c1ccccc1 (stereo not drawn)', '=', 6.15),
  ('CC(=O)N[C@H](Cc1ccccc1)C(=O)N1CCC[C@H]1C(=O)N[C@@H](CCCn1nnnc1N)B1O[C@@H]2CC3CC(C3(C)C)[C@]2(C)O1 (stereo partly drawn)', '=', 5.22),
  ('Cc1cc(C(=O)Nc2ccc(C(=N)N(C)C)cc2F)n(-c2cc3ccccc3cc2F)n1', '=', 8.41),
  ('N=C(N)c1ccc2scc([C@H](Cc3ccccc3)C(=O)NC3CCCC[C@H]3C(=O)O)c2c1 (stereo partly drawn)', '=', 6.70);
